Biological target: K-Ras G12C (Homo sapiens (Human), UniProt P01116+P62937, G12C)
Sequence (P01116-2 other isoform, or with tags, fused parts or gaps G12C): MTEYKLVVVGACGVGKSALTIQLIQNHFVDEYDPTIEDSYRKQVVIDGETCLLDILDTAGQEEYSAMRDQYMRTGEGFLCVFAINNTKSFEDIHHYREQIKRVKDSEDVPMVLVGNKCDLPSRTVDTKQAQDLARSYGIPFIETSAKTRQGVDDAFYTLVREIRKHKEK
Sequence (P62937 whole entry): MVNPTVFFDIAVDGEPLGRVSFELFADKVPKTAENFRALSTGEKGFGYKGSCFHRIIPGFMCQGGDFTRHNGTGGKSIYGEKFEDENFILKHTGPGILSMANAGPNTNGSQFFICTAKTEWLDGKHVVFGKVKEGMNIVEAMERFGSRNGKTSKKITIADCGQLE
Experiment: Ras-Raf (BRAF RBD) disruption / FRET / MOA assay, KRAS G12C
Assay type: biochemical
Details: KRAS G12C; Ras-Raf disruption/FRET/MOA assay; read-out: IC50* KRAS G12C FRET data
ENDPOINT: IC50

C=CC(=O)N1CC[C@H](N(C)C(=O)N(C)[C@H](C(=O)N[C@H]2Cc3nc(cs3)-c3ccc4c(c3)c(c(-c3cccnc3[C@H](C)OC)n4CC)CC(C)(C)COC(=O)[C@@H]3CCCN(N3)C2=O)C(C)C)C1 (atropisomer, axis not shown)
100 to 1000 nM
CCn1c(-c2cccnc2[C@H](C)OC)c2c3cc(ccc31)-c1cc(O)cc(c1)C[C@H](NC(=O)[C@H](C(C)C)N(C)C(=O)C1CN(C(=O)/C=C/CN(C)C)C1)C(=O)N1CCC[C@H](N1)C(=O)OCC(C)(C)C2 (atropisomer, axis not shown)
< 10 nM
C=CC(=O)N1CC(OCC(C(=O)N[C@H]2Cc3cc(cc(C(F)F)c3)-c3ccc4c(c3)c(c(-c3cccnc3[C@H](C)OC)n4CC)CC(C)(C)COC(=O)[C@@H]3CCCN(N3)C2=O)C(C)C)C1 (mixture of isomers)
> 10000 nM

// lookup IC50 for C=CC(=O)N1CC[C@H](C(=O)N(C)[C@H](C(=O)N[C@H]2Cc3cc(O)cc(c3)-c3ccc4c(c3)c(c(-c3cccc5c3COC5)n4CC)CC(C)(C)COC(=O)[C@@H]3CCCN(N3)C2=O)C(C)C)C1
100 to 1000 nM
